This collection of values is drawn from patent US10407381B2.

STUDY_SYSTEM: 5-HT2A (Homo sapiens, UniProt P28223)
Sequence (P28223 whole entry): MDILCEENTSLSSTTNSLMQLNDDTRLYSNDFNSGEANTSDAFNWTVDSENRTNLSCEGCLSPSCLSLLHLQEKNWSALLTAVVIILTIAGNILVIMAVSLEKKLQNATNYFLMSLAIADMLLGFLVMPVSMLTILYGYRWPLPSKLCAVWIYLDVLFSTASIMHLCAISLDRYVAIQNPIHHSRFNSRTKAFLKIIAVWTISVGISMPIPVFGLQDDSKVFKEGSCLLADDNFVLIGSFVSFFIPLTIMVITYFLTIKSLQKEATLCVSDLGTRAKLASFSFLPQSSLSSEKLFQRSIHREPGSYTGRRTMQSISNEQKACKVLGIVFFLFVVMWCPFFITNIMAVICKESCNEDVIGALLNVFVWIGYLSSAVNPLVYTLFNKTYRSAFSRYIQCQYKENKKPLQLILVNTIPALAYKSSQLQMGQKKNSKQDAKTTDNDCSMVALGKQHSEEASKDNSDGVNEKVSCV
METHOD_DESCRIPTION: Calcium flux (FLIPR) assay, human 5-HT2A stably expressed in HEK-293 (Flp-In-293) cells
TEST_PARAMETERS: EC50, nM 5-HT2A, human 5-HT2A in HEK-293 cells, FLIPR; NA = no activity at 10 μM
Entries and their EC50
RECORDED_METRIC: EC50 (nM)

COMPOUND | RECORDED_METRIC | RECORDED_RESULT
CCOc1cc(F)c(Cl)cc1C1CC1CN (single isomer, unassigned; (+)) [(+)-Example 2] | EC50 | 194
C=C(F)COc1ccc(F)cc1C1CC1CN (single isomer, unassigned; (+)) [(+)-Example 9] | EC50 | 1670
CCOc1ccc(F)c(F)c1C1CC1CN (single isomer, unassigned; (+)) [(+)-Example 46] | EC50 | 1160
CCOc1cc(F)c(F)cc1C1CC1CN (single isomer, unassigned; (+)) [(+)-Example 41] | EC50 | 260
COc1ccc(Cl)c(F)c1[C@@H]1C[C@H]1CN (single isomer, unassigned) [(+)-Example 29] | EC50 | 212
NCC1CC1c1cc(Cl)ccc1OCC(F)F (single isomer, unassigned; (+)) [(+)-Example 21] | EC50 | 1810
NCC1CC1c1cc(Cl)ccc1OCC(F)F (single isomer, unassigned; (-)) [(−)-Example 21] | EC50 | 1300
COc1cc(F)c(Cl)cc1[C@@H]1C[C@H]1CN (single isomer, unassigned) [(+)-Example 1] | EC50 | 81
C#CCOc1ccc(Cl)cc1C1CC1CN (single isomer, unassigned; (+)) [(+)-Example 26] | EC50 | 1010
COc1cc(F)c(Cl)cc1[C@@H]1C[C@H]1CN (single isomer, unassigned) [(−)-Example 1] | EC50 | 235
COc1ccc(F)c(F)c1[C@@H]1C[C@H]1CN (single isomer, unassigned) [(+)-Example 45] | EC50 | 437
NCC1CC1c1cc(F)ccc1OCCF (single isomer, unassigned; (+)) [(+)-Example 10] | EC50 | 359
CCOc1ccc(F)c(Cl)c1C1CC1CN (single isomer, unassigned; (+)) [(+)-Example 51] | EC50 | 761
NCC1CC1c1cc(F)ccc1OCCF (single isomer, unassigned; (-)) [(−)-Example 10] | EC50 | 2990
CCOc1cc(F)c(Cl)cc1C1CC1CN (single isomer, unassigned; (-)) [(−)-Example 2] | EC50 | 1240
